tested on: U2OS; test: Multiplex assay against U2OS; assay type: toxicity, cell-based; conditions: human, 24 h, 10 µM, compound concentration 10 uM, replicate 1
value_type: Population Healthy Nuclei (%)
Numbers only; they are read as %.

These solved cases illustrate the format of a correct answer.
CCc1cccc(CC)c1NC(=O)c1nn(C)c2c1CCc1cnc(Nc3ccc(C(=O)NC4CCN(C)CC4)cc3OC(F)(F)F)nc1-2
48
O=C1N/C(=N/c2ccccc2F)S/C1=C\c1ccc(C(=O)O)cc1
85
COc1cccc2cc(-c3nc([C@H]4CC[C@H](C(=O)O)CC4)n4ncnc(N)c34)[nH]c12
81
CN1CCN(C(=O)C(C)(C)c2ccc(C(=O)Nc3cn4cc(-c5cc(C(C)(C)C)cc(C(C)(C)C)c5)ccc4n3)cc2)CC1
83
O=C(Nc1ccc(-n2nc(-c3cccnc3)cc2C(F)(F)F)cn1)c1ccc(-c2ccccc2)c(F)c1
71
Cc1cn(-c2cc(NC(=O)c3ccc(C)c(Nc4nccc(-c5cccnc5)n4)c3)cc(C(F)(F)F)c2)cn1
16

Problem: Tell me Population Healthy Nuclei (%) reported for COc1cc2ncnc(Nc3ccc(F)c(Cl)c3)c2cc1NC(=O)/C=C/CN1CCCCC1 [DACOMITINIB ANHYDROUS]
Result: 86

Problem: Tell me Population Healthy Nuclei (%) reported for COc1ccc(S(=O)(=O)N(CCO)c2ccccc2CN(C)C/C=C/c2ccc(Cl)cc2)cc1.O=P(O)(O)O
Result: 87

Problem: Tell me Population Healthy Nuclei (%) reported for COc1cc(N2CCN(C)CC2)ccc1Nc1ncc2c(n1)N(C)c1ccccc1C(=O)N2C
Result: 50

Problem: Tell me Population Healthy Nuclei (%) reported for Cc1cc(C)c(S(=O)(=O)N(Cc2ccc(-c3cccc(S(C)(=O)=O)c3)cc2)Cc2ccc(C(F)(F)F)o2)c(C)c1
Result: 71

Problem: Tell me Population Healthy Nuclei (%) reported for Cl.Oc1ccc2c3c1O[C@H]1c4[nH]c5c(c4C[C@@]4(O)[C@@H](C2)N(CC2CC2)CC[C@]314)C[C@@]1(O)[C@H]2Cc3ccc(O)c4c3[C@@]1(CCN2CC1CC1)[C@H]5O4
Result: 80

Problem: Tell me Population Healthy Nuclei (%) reported for CCN1CCN(c2ccc(Nc3cc(N(C)C(=O)Nc4c(Cl)c(OC)cc(OC)c4Cl)ncn3)cc2)CC1
Result: 87

Problem: Tell me Population Healthy Nuclei (%) reported for CCCS(=O)(=O)Nc1ccc(F)c(C(=O)c2c[nH]c3ncc(Cl)cc23)c1F
Result: 92

====

tested on: HEK-293T; test: Multiplex assay against HEK293T; format: toxicity, cell-based; details: human, 48 h, 1 µM, compound concentration 1 uM, replicate 2
value_type: Population Normal (%)
Numbers only; they are read as %.

Problem: Tell me Population Normal (%) reported for Cc1cn(-c2cc(NC(=O)c3ccc(C)c(Nc4nccc(-c5cccnc5)n4)c3)cc(C(F)(F)F)c2)cn1
Result: 96

Problem: Tell me Population Normal (%) reported for CNc1cc(Oc2cc(C(=O)Nc3cc(N4CCN(C)CC4)cc(C(F)(F)F)c3)ccc2C)ncn1
Result: 95

Problem: Tell me Population Normal (%) reported for O=C1NC(=O)C(c2cnc3ccccn23)=C1c1cn2c3c(cc(F)cc13)CN(C(=O)N1CCCCC1)CC2
Result: 91

====

system: HEK-293T; assay: Multiplex assay against HEK293T; format: toxicity, cell-based; conditions: human, 48 h, 10 µM, compound concentration 10 uM, replicate 1
value_type: Population Membrane Permeable-Phenotype (%)
Numbers only; they are read as %.

These solved cases illustrate the format of a correct answer.
Cl.Oc1ccc2c3c1O[C@H]1c4[nH]c5c(c4C[C@@]4(O)[C@@H](C2)N(CC2CC2)CC[C@]314)C[C@@]1(O)[C@H]2Cc3ccc(O)c4c3[C@@]1(CCN2CC1CC1)[C@H]5O4
2
CN1CCC(=C2c3ccccc3CC(=O)c3sccc32)CC1.O=C(O)/C=C/C(=O)O [KETOTIFEN FUMARATE]
2
CNc1cc(Oc2cc(C(=O)Nc3cc(N4CCN(C)CC4)cc(C(F)(F)F)c3)ccc2C)ncn1
0
COc1cc(N2CCN(C)CC2)ccc1Nc1ncc2c(n1)N(C)c1ccccc1C(=O)N2C
3
CN1C2CCC1CC(OC(c1ccc(F)cc1)c1ccc(F)cc1)C2.Cl (configuration not stated)
0
Cc1cn(-c2cc(NC(=O)c3ccc(C)c(Nc4nccc(-c5cccnc5)n4)c3)cc(C(F)(F)F)c2)cn1
0

Now examine the next entry.
Problem: // output Population Membrane Permeable-Phenotype (%); input CN1CCN(C(=O)C(C)(C)c2ccc(C(=O)Nc3cn4cc(-c5ccncc5)ccc4n3)cc2)CC1 ; system HEK-293T
Result: 0

====

tested on: HEK-293T; assay: Multiplex assay against HEK293T; format: toxicity, cell-based; conditions: human, 24 h, 1 µM, compound concentration 1 uM, replicate 1
value_type: Population Apoptotic (%)
Numbers only; they are read as %.

These solved cases illustrate the format of a correct answer.
O=C(Cc1ccc(-c2ccc(OCCN3CCOCC3)cc2)cn1)NCc1ccccc1
39
COc1cc2ncnc(Nc3ccc(F)c(Cl)c3)c2cc1NC(=O)/C=C/CN1CCCCC1 [DACOMITINIB ANHYDROUS]
39
CN[C@@H]1C[C@H]2O[C@@](C)([C@@H]1OC)n1c3ccccc3c3c4c(c5c6ccccc6n2c5c31)C(=O)NC4
48

Problem: Tell me Population Apoptotic (%) reported for COC(=N)c1nc2ccc3ncnc(Nc4ccc(OC)cc4F)c3c2s1
Result: 19

Problem: Tell me Population Apoptotic (%) reported for COc1cc(N2CCN(C)CC2)ccc1Nc1ncc2c(n1)N(C)c1ccccc1C(=O)N2C
Result: 38

Problem: Tell me Population Apoptotic (%) reported for CCc1cccc(CC)c1NC(=O)c1nn(C)c2c1CCc1cnc(Nc3ccc(C(=O)NC4CCN(C)CC4)cc3OC(F)(F)F)nc1-2
Result: 63

Problem: Tell me Population Apoptotic (%) reported for Cn1nc(C(F)(F)F)cc1-c1cnc(N2CCc3cc(S(=O)(=O)Nc4c(F)cc(Cl)cc4F)cc(N4CCCC4=O)c32)nc1
Result: 21

Problem: Tell me Population Apoptotic (%) reported for Cc1cn(-c2cc(NC(=O)c3ccc(C)c(Nc4nccc(-c5cccnc5)n4)c3)cc(C(F)(F)F)c2)cn1
Result: 69

Problem: Tell me Population Apoptotic (%) reported for C=CCn1c(=O)c2cnc(Nc3ccc(N4CCN(C)CC4)cc3)nc2n1-c1cccc(C(C)(C)O)n1
Result: 17

====

tested on: U2OS; assay: Multiplex assay against U2OS; format: toxicity, cell-based; conditions: human, 12 h, 1 µM, compound concentration 1 uM, replicate 2
Population Normal (%) values by entry
Numbers only; they are read as %.

Problem: // output Population Normal (%); input CN1CCN(C(=O)C(C)(C)c2ccc(C(=O)Nc3cn4cc(-c5cc(C(C)(C)C)cc(C(C)(C)C)c5)ccc4n3)cc2)CC1 ; system U2OS
Result: 88

Problem: // output Population Normal (%); input O=C(Nc1ccc(-c2ccnc(Nc3ccc(N4CCOCC4)cc3)n2)cc1)[C@@H]1CCCN1 ; system U2OS
Result: 92

Problem: // output Population Normal (%); input O=C(Cc1ccc(-c2ccc(OCCN3CCOCC3)cc2)cn1)NCc1ccccc1 ; system U2OS
Result: 87

Problem: // output Population Normal (%); input Cc1ccc(C(=O)Nc2cccc(C(F)(F)F)c2)cc1Nc1nc(-c2cccnc2)nc2c1cnn2C ; system U2OS
Result: 96

Problem: // output Population Normal (%); input Cl.O=C(c1ccc(Nc2nccc(-c3cc4ccccc4s3)n2)cc1)N1CCC(N2CCCC2)CC1 ; system U2OS
Result: 74

Problem: // output Population Normal (%); input CCOC(=O)c1c(C)[nH]c2ccc3c(c12)CN1CCc2cc(OC)ccc2C1O3 (centres undefined) ; system U2OS
Result: 90

Problem: // output Population Normal (%); input CCCS(=O)(=O)c1nc(NC2CC2)cc(-c2ccc3c(ccn3C3CC(C)(C)NC(C)(C)C3)c2)n1 ; system U2OS
Result: 94

Problem: // output Population Normal (%); input C=C1/C(=C\C=C2/CCC[C@]3(C)[C@@H]([C@H](C)/C=C/[C@H](C)C(C)C)CC[C@@H]23)C[C@@H](O)C[C@@H]1O ; system U2OS
Result: 98

Problem: // output Population Normal (%); input C=CCn1c(=O)c2cnc(Nc3ccc(N4CCN(C)CC4)cc3)nc2n1-c1cccc(C(C)(C)O)n1 ; system U2OS
Result: 94

====

system: HEK-293T; assay: Incucyte cell viability with HEK293T; format: toxicity, cell-based; conditions: human, 12 h, 10 µM, compound concentration 10 uM, replicate number 1, timepoint 12 hours; also: filed as whole numbers so only -1 and 0 and 1 occur
Growth Rate values by entry
Could you keep your reply to the number by itself?

These solved cases illustrate the format of a correct answer.
CCCS(=O)(=O)c1nc(NC2CC2)cc(-c2ccc3c(ccn3C3CC(C)(C)NC(C)(C)C3)c2)n1
0
C=C1/C(=C\C=C2/CCC[C@]3(C)[C@@H]([C@H](C)/C=C/[C@H](C)C(C)C)CC[C@@H]23)C[C@@H](O)C[C@@H]1O
0
COc1cccc2cc(-c3nc([C@H]4CC[C@H](C(=O)O)CC4)n4ncnc(N)c34)[nH]c12
0
COc1cc2c(CCNC(C)=O)c[nH]c2cc1Cl
1
CCN1CCN(Cc2ccc(Nc3ncc(F)c(-c4cc(F)c5nc(C)n(C(C)C)c5c4)n3)nc2)CC1.CS(=O)(=O)O
0

Problem: // output Growth Rate; input CNC[C@H](O)c1cccc(O)c1 ; system HEK-293T
Result: 0
